- testSystem: CRBN-DDB1 (Homo sapiens)
- Sequence (Q96SW2 whole entry): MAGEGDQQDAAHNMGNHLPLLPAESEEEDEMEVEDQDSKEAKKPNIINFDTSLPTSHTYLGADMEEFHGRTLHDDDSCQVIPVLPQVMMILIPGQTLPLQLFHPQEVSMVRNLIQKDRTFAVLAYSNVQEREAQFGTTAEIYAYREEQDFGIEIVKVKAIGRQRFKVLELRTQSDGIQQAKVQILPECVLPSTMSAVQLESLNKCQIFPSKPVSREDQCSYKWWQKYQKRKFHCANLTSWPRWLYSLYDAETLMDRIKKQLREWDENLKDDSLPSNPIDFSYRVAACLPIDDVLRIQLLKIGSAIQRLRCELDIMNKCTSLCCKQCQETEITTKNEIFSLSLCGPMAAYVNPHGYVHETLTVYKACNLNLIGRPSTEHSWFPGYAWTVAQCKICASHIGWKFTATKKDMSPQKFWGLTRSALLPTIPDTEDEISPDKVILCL
- Sequence (Q16531 whole entry partner): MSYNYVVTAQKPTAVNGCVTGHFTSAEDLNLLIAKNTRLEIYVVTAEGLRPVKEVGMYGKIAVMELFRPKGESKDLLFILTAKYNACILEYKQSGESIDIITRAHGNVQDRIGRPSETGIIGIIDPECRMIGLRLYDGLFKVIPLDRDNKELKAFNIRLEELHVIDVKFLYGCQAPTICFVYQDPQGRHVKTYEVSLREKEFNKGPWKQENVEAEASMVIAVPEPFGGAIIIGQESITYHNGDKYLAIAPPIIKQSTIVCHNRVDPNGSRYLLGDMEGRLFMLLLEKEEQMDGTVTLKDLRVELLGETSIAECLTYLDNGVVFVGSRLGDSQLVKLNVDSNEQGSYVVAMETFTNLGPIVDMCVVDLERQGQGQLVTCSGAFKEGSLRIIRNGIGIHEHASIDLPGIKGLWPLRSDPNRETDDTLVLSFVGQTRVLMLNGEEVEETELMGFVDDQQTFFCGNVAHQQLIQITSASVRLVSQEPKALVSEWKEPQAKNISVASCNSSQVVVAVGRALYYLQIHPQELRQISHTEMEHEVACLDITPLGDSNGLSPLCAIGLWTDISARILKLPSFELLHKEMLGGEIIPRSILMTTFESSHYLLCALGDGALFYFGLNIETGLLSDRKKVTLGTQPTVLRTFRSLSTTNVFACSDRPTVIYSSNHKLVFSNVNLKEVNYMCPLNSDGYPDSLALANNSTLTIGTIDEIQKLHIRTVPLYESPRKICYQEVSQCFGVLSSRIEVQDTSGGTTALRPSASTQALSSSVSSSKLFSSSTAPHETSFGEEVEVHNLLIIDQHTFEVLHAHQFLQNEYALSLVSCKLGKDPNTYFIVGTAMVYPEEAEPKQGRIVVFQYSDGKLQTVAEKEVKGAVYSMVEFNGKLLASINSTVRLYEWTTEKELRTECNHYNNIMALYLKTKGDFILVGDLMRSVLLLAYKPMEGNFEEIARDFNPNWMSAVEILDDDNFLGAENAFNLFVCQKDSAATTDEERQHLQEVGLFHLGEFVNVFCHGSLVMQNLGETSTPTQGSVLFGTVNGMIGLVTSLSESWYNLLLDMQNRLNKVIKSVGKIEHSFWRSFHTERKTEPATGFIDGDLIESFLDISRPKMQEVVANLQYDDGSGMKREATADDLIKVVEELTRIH
Please respond with reported IC50 for every item in the list.

If you can, please state the reported IC50 value of NCCCCCC#Cc1cccc(Oc2cccc3c2C(=O)NC(=O)C3)c1 [Compound I-247] .
10 to 30 µM

If you can, please state the reported IC50 value of CC(C)(C)OC(=O)NCCCCCCCC#Cc1cccc(Oc2cccc3c2C(=O)NC(=O)C3)c1 [Compound I-225] .
> 100 µM

If you can, please state the reported IC50 value of O=C1Cc2cccc(Oc3ccccc3Cl)c2C(=O)N1 [Compound I-202] .
< 10 µM

If you can, please state the reported IC50 value of O=C1NC(=O)C2(CC2)c2cccc(Br)c21 [Compound I-58] .
> 100 µM

If you can, please state the reported IC50 value of CC(C)(C)OC(=O)NCCCc1ccc(Oc2cccc3c2C(=O)NC(=O)C3)cc1 [Compound I-227] .
> 100 µM

If you can, please state the reported IC50 value of CC(=O)Nc1ccc2c(c1)C(=O)NC(=O)C2 [Compound I-21] .
10 to 30 µM

If you can, please state the reported IC50 value of O=C1C[C@]2(CCc3c([N+](=O)[O-])cccc32)C(=O)N1 [Compound I-196] .
> 100 µM

If you can, please state the reported IC50 value of CC(C)(C)OC(=O)NCCCCCCCC#Cc1ccc(Oc2cccc3c2C(=O)NC(=O)C3=O)cc1 [Compound I-240] .
10 to 30 µM

If you can, please state the reported IC50 value of Cc1ccccc1Oc1cccc2c1C(=O)NC(=O)C2=O [Compound I-253] .
< 10 µM

If you can, please state the reported IC50 value of CC(C)(C)OC(=O)NCCCCCCCc1ccc(Oc2cccc3c2C(=O)NC(=O)C3)cc1 [Compound I-231] .
> 100 µM

If you can, please state the reported IC50 value of O=C1Cc2ccc(O)cc2C(=O)N1 [Compound I-19] .
> 100 µM

If you can, please state the reported IC50 value of O=C1Cc2cccc(Oc3cccc(F)c3)c2C(=O)N1 [Compound I-198] .
10 to 30 µM

If you can, please state the reported IC50 value of O=C1Cc2c(F)cccc2C(=O)N1 [Compound I-72] .
> 100 µM

If you can, please state the reported IC50 value of O=C1Cc2cccc(N3CCCCC3=O)c2C(=O)N1 [Compound I-193] .
30 to 100 µM

If you can, please state the reported IC50 value of CC(C)(C)OC(=O)NCc1cccc(Oc2cccc3c2C(=O)NC(=O)C3)c1 [Compound I-273] .
10 to 30 µM

If you can, please state the reported IC50 value of Nc1ccc2c(c1)CC(=O)NC2=O [Compound I-77] .
10 to 30 µM

If you can, please state the reported IC50 value of O=C1Cc2cccc(Oc3ccccc3[N+](=O)[O-])c2C(=O)N1 [Compound I-261] .
10 to 30 µM

If you can, please state the reported IC50 value of O=C1NC(=O)[C@@H]2CN(C3CCCC3)C[C@H]12 [Compound I-159] .
> 100 µM

If you can, please state the reported IC50 value of CC(C)(C)OC(=O)NCCCCCCCc1cccc(Oc2cccc3c2C(=O)NC(=O)C3)c1 [Compound I-224] .
> 100 µM

If you can, please state the reported IC50 value of O=C1Cc2ccccc2C(=O)N1 [Compound I-5, 2,4-Dihydroisoquinoline-1,3-dione] .
30 to 100 µM

If you can, please state the reported IC50 value of O=C1Cc2cccc(Oc3ccc(Br)cc3)c2C(=O)N1 [Compound I-206] .
< 10 µM

If you can, please state the reported IC50 value of O=C1NC(=O)c2c(Oc3cccnc3)cccc2C1=O [Compound I-266] .
< 10 µM

If you can, please state the reported IC50 value of CCOC(=O)c1cccc(N2C[C@@H]3C(=O)NC(=O)[C@@H]3C2)c1 [Compound I-133] .
> 100 µM

If you can, please state the reported IC50 value of O=C1Cc2cccc(C(=O)N(Cc3ccccc3)Cc3ccccc3)c2C(=O)N1 [Compound I-208] .
10 to 30 µM

If you can, please state the reported IC50 value of CC(C)(C)OC(=O)NCCCCCCCC#Cc1ccccc1Oc1cccc2c1C(=O)NC(=O)C2=O [Compound I-243] .
30 to 100 µM

If you can, please state the reported IC50 value of O=C1Cc2cccc(Oc3ccccc3F)c2C(=O)N1 [Compound I-200] .
< 10 µM

If you can, please state the reported IC50 value of NCCCCCc1cccc(Oc2cccc3c2C(=O)NC(=O)C3)c1 [Compound I-246] .
< 10 µM

If you can, please state the reported IC50 value of CC(C)(C)OC(=O)NCCCCCC#Cc1ccc(Oc2cccc3c2C(=O)NC(=O)C3)cc1 [Compound I-230] .
> 100 µM

If you can, please state the reported IC50 value of O=C1Cc2cncc(Oc3ccccc3)c2C(=O)N1 [Compound I-235] .
10 to 30 µM

If you can, please state the reported IC50 value of CC(C)(C)OC(=O)NCCCCCC#Cc1cccc(Oc2cccc3c2C(=O)NC(=O)C3)c1 [Compound I-223] .
30 to 100 µM

Where do these numbers come from? They come from patent US20220281831A1.
